Target: T1, HCoV-HKU1 spike antigens (bead panel) (HCoV-HKU1, UniProt Q5MQD0 13-1300)
T1 sequence: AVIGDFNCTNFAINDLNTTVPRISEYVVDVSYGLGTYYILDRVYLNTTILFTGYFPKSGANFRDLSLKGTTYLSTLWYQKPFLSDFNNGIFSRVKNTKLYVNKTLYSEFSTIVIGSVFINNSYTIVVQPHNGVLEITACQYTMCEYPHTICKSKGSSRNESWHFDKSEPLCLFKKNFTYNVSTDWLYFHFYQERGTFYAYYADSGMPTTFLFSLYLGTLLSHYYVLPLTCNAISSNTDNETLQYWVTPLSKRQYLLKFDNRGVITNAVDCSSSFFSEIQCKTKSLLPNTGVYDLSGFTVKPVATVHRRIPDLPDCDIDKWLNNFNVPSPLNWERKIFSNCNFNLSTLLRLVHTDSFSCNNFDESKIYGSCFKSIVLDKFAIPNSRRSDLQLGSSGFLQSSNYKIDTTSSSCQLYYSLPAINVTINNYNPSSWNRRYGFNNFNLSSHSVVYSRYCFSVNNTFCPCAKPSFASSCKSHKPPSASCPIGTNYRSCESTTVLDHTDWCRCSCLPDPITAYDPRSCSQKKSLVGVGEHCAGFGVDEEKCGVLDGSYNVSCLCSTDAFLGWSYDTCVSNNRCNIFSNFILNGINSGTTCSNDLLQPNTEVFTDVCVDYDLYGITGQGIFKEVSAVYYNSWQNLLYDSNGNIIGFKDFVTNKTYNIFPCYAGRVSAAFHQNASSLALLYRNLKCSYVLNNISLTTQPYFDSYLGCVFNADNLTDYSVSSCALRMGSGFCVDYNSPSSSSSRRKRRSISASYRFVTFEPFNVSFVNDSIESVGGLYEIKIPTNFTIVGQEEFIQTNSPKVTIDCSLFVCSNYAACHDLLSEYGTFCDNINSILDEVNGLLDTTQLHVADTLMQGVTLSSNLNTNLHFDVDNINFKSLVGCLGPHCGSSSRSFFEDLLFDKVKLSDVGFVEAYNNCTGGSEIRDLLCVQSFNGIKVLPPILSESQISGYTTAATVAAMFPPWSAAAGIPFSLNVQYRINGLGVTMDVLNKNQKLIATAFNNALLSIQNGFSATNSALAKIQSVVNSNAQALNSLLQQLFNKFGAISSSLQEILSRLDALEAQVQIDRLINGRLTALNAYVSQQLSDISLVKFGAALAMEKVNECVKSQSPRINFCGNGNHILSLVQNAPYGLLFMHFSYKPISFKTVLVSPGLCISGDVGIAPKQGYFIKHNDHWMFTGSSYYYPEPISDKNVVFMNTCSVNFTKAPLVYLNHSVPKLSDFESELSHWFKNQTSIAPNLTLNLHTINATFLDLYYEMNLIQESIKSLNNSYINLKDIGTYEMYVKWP
Assay: multiplex bead assay

binder	binding result
COV_1201 (antibody, V domains shown, human IgG1) VH: QVQLVQSGAEVKKPGASMKVSCKASGYTFTGYYIHWVRQAPGQGLEWMGRINPNSGGTNYAQKFQGRVTMTRDTSISTAYMELSRLRSDDTAVYYCAREYYYVPYGMDVWGQGTTVTVSS VL: QSALTQPASVSGSPGQSITISCTGTSSDVGGYNFVSWYQHHPGKAPKLMIYEVSNRPSGVSNRFSGSKSGNTASLTISGLQAEDEADYYCSSYTSSSTYVFGTGTKVTVL	no binding
COV_3069 (antibody, V domains shown, human IgG1) VH: EVQLVESGGGLVKPGGSLRLSCAASGFTFGSYTMNWVRQAPGKGLEWVSSIDTTSSSIYYADSLKGRFAISRDSAKNSLYLQMNRLRAEDTAVYYCARGNGHSYDSSGYHYGMYFDYWGQGTLVTVSS VL: DIQMTQSPSTLSASVGDRVTITCRASQSISRWLAWYQQKPGKAPKLLIYEVSSLENGVPSRFSGSRSGTEFTLTISSLQPDDFAIYYCQQYNTYSRTFGQGTKVEIKR	no binding

Attribution: patent US20240101645A1
